Provide the recorded pIC50 for the entries that follow.
- Measured target: human TLR7 (Homo sapiens, UniProt Q9NYK1)
- Sequence (Q9NYK1 27-1049): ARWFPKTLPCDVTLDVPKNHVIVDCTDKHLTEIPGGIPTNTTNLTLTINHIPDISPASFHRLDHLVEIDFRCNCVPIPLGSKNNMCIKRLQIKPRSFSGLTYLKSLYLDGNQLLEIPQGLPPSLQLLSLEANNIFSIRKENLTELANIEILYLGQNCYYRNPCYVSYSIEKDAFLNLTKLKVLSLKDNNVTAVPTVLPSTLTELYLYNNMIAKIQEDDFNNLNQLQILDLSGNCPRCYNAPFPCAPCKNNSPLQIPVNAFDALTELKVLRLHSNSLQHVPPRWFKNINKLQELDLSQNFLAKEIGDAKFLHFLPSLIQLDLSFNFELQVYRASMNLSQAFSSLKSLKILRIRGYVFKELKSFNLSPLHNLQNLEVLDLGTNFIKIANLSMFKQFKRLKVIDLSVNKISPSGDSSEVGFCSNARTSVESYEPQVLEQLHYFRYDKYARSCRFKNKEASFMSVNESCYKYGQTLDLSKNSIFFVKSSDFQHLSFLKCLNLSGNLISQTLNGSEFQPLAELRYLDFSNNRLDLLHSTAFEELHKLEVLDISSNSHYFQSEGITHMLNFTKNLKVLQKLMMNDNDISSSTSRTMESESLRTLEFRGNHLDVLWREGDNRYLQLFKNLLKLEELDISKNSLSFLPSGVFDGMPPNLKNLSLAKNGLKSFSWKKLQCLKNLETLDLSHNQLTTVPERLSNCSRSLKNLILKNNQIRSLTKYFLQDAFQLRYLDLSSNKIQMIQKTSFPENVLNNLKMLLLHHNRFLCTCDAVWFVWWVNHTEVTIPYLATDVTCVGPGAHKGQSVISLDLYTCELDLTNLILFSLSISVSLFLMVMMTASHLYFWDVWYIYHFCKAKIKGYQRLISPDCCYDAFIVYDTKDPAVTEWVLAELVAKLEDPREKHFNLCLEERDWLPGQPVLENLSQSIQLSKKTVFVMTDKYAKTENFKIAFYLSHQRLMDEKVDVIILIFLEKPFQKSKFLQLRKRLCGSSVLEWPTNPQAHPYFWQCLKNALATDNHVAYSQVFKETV
- Protocol details: TLR7/8/9 Inhibition Reporter Assays (TLR7)
- Condition parameters: HEK-Blue cells overexpressing human TLR7, SEAP reporter, stimulated with TLR7 ligand gardiquimod
One number for each entry, as −log10 of the molar value.

Cc1cc(-c2nc3c(C)nc(-c4ccc(N5CCN(CC6CC6)CC5)cc4)cc3n2C)cc(C)n1	5.96
CC(C)CN1CCC(N2CCC(c3cc4c(nc(-c5ccc(S(C)(=O)=O)cc5)n4C)c(C(F)(F)F)n3)CC2)CC1	5.85
Cc1nc(-c2ccc(N3CC4(C3)CN(C3CCC3)C4)cc2)cc2c1nc(-c1ccc(S(C)(=O)=O)cc1)n2C	5.96
Cn1c(-c2ccc(S(C)(=O)=O)cc2)nc2c(C(F)(F)F)nc(C3=CCN(C4CCN(CC(C)(C)O)CC4)CC3)cc21	4.89
Cc1nc(-c2ccc(CN3CCC(N(C)C4CC4)CC3)cc2)cc2c1nc(-c1ccc(S(C)(=O)=O)cc1)n2C	5.77
CC(C)CN1C[C@@H]2CN(c3ccc(-c4cc5c(cn4)nc(-c4ccc(S(C)(=O)=O)cc4)n5C4CC4)cc3)C[C@@H]2C1	5.47
COc1cc(-c2nc3c(C)nc(-c4ccc(N5CCN(C6CCC6)CC5)cc4)cc3n2C)cn2ncnc12	5.82
CC(C)N1CCN(c2ccc(-c3cc4c(cn3)nc(-c3ccc(S(C)(=O)=O)cc3)n4C)cc2)CC1	5.28

State recorded pIC50 for all listed compounds.
1. CC(C)N1C[C@H]2CN(c3ccc(-c4cc5c(cn4)nc(-c4ccc(S(C)(=O)=O)cc4)n5C4CC4)cc3)C[C@H]2C1
2. COc1ccc(-c2nc3c(C)nc(-c4ccc(N5CCC6(CC5)CN(C(C)C)C6)cc4)cc3n2C)cc1OC
3. Cc1nc(C2CCN(C3CCN(C(C)C)CC3)CC2)cc2c1nc(-c1ccc(S(C)(=O)=O)cc1)n2C

1: 5.82; 2: 5.64; 3: 5.11
